Assay: Compound solubility in water
Assay type: physicochemical
measured parameter: solubility (µg/mL)

Given the entry CCc1cc(Oc2ccc(F)cc2)nc2c(C(=O)N[C@@H](C)C3CC3)ncn12 [III-166] , report its measured solubility. 10.8

I have this compound here, Cc1cc(-n2ccnc2)nc2c(C(=O)NC(C)(C)C3CC3)ncn12 [III-67] , and I need its recorded solubility. 23.4

What value of solubility has been recorded for this entry: Cc1cc(-c2cccc(Cl)c2)nc2c(C(=O)N[C@@H](C)C3CC3)ncn12 [III-110] 3.6

# query: solubility of entry CCCO[C@H]1CC[C@H](NC(=O)c2ncn3c(C)cc(-c4cccnc4)nc23)CC1 [III-65] 15.4

Reported solubility for Cc1cc(C)n2cnc(C(=O)NC(CC(C)C)C3CC3)c2n1 (stereo not drawn) [III-11] : what is it? 32.6

[I] Cc1cc(-c2cccc(Cl)c2)nc2c(C(=O)NC(C)(C)C3CC3)ncn12 [III-162]
[II] COCc1cc(C)nc2c(C(=O)NC(c3ccc(F)cc3)C(F)(F)F)ncn12 (stereo not drawn) [III-23]
[III] Cc1cc(-n2ccc(Cl)n2)nc2c(C(=O)NC(C3CC3)C(F)(F)F)ncn12 (stereo not drawn) [III-143]
With regard to solubility, arrange the entries in ascending order, please. Write out the labels following the order that was asked for. I, III, II
